Values from paper PMC2244712

Target: HLA-A*0201 (Homo sapiens, UniProt P04439, D140Y/D185E/D98H/E176V/E277Q/G131W/G231S/I119V/I121R/I166T/I218V/L300P/L318F/N151K/N90K/P208A/P217A/Q86G/Q94H/R138H/R169H/T345S)
Construct: generated from synthetic codon optimized and truncated genes without the transmembrane region; BSP (BirA biotinylation substrate peptide, biotinylated in vivo or not) (C)
Assay: biochemical
Residues, ends and D or L forms follow the SMILES beside them.
Attribute: Kd

Solved cases below.
# input Value lookup for Kd; key = CC(C)C[C@H](NC(=O)[C@@H](N)Cc1ccc(O)cc1)C(=O)N[C@@H](CO)C(=O)N[C@H](C(=O)N[C@@H](CCC(=O)O)C(=O)N[C@@H](CCCNC(=N)N)C(=O)N[C@@H](CC(=O)O)C(=O)N[C@@H](Cc1c[nH]cn1)C(=O)N[C@H](C(=O)O)C(C)C)[C@@H](C)O (H-YLSTERDHV-OH)
# output 0.01 to 0.1 µM

# input // next record CC[C@H](C)[C@H](NC(=O)[C@@H](NC(=O)[C@H](CC(=O)O)NC(=O)[C@H](Cc1ccc(O)cc1)NC(=O)[C@H](CC(=O)O)NC(=O)[C@H](CC(C)C)NC(=O)[C@@H](N)Cc1ccc(O)cc1)[C@@H](C)O)C(=O)N[C@@H](Cc1ccc(O)cc1)C(=O)N[C@H](C(=O)O)C(C)C (H-YLDYDTIYV-OH)
# output < 0.01 µM

# input // next record CC(C)C[C@H](NC(=O)[C@@H](N)Cc1ccccc1)C(=O)N[C@@H](CCC(=O)O)C(=O)N[C@H](C(=O)N[C@@H](CC(=O)O)C(=O)N[C@@H](C)C(=O)NCC(=O)N[C@@H](CCCNC(=N)N)C(=O)N[C@H](C(=O)O)C(C)C)[C@@H](C)O (H-FLETDAGRV-OH)
# output 0.01 to 0.1 µM

# input // next record CC[C@H](C)[C@H](NC(=O)[C@H](CC(N)=O)NC(=O)[C@@H](NC(=O)[C@H](C)NC(=O)[C@H](CO)NC(=O)[C@H](CC(=O)O)NC(=O)[C@H](CO)NC(=O)[C@H](CC(C)C)NC(=O)[C@@H](N)Cc1ccc(O)cc1)[C@@H](C)CC)C(=O)O (H-YLSDSAINI-OH)
# output < 0.01 µM

Others:
# input Value lookup for Kd; key = CC[C@H](C)[C@H](NC(=O)[C@H](CCCCN)NC(=O)[C@H](CCCCN)NC(=O)[C@H](CS)NC(=O)[C@H](C)NC(=O)[C@H](CC(=O)O)NC(=O)[C@H](CO)NC(=O)[C@H](CC(C)C)NC(=O)[C@H](C)N)C(=O)O (H-ALSDACKKI-OH)
# output > 1 µM
